Quick list: logP per entry.
The reply should be a number, written without any unit.

Example molecules with recorded logP:
O=C1c2ccccc2C(=O)C1c1ccccc1    2.9
CCCCCCCCCC    5.01

"CN(C)CC/C=C1\c2ccccc2Sc2ccc(Cl)cc21" has a reported logP of 5.18

// recorded logP for "N[C@@H](Cc1cnc[nH]1)C(=O)O" : -3.32

Lab note: "OCC=Cc1ccccc1" gave logP of 1.95

Entry under test: "Nc1ncnc2[nH]cnc12" . Its logP was -0.09

What the record says about "c1ccc2sccc2c1" : logP is 3.12

The value of logP measured for the molecule "Nc1ncnc2c1ncn2[C@H]1C=C[C@@H](CO)O1" turned out to be -0.5

The recorded logP for "O=C(O)c1cccc(Br)c1" is 2.87

Sample "NC(=O)Cc1ccncc1" ; logP observed: -0.65

Reported logP ( "CNC(=O)Oc1ccccc1I" ) = 1.94

Item: "OC1CCCCC1" | logP: 1.23

According to the records, this molecule "COP(=O)(OC)OC" displays logP of -0.65

Documented logP of "CSCC[C@H](N)C(=O)O" : -1.87

Value of measured logP for the entry "O=C(O)c1ccccc1O" : 2.26

GET /value?item= "CN(C)CCCN1c2ccccc2Sc2ccccc21" &field=logP returns 4.55

Lab note: measured logP of "CCCCN" was 0.97

Lookup result for CC1CC(C)C(=O)C(C(O)CC2CC(=O)NC(=O)C2)C1 (stereo not given) ; measured logP: 0.55

The reported logP of the molecule "Oc1ccnc(S)n1" was -0.28

The molecule listed as "O=C(O)Cc1ccc(O)cc1" shows logP equal to 0.75

// "Oc1cc(O)cc(O)c1" : logP value = 0.16

get_value(item= "O=C(O)c1ccccc1Nc1cccc(C(F)(F)F)c1" , readout=logP) returns 5.25

So for "Cc1cc(C(=O)NN)ccn1" , the logged logP turned out to be -0.37

Notebook: "Cc1cccc(C)c1O" , logP read as 2.36

---

property: logP
# print the numeric value only

Here is how some compounds turned out for logP.
COc1cc(CCN)cc(OC)c1Br    2.03
Nc1nc(N)c2ncn([C@H]3C[C@H](O)[C@@H](CO)O3)c2n1    -0.52
OCC(F)(F)F    0.41
CCOC(=O)Cc1ccccc1    2.28
O=C(O)CSc1ccccc1    1.91

Entry "Cc1ccc(Cl)cc1" , logP reported as 3.33

Summary for this compound, "NS(=O)(=O)c1cccc(Cl)c1" : logP is 1.29

logP reading for "CCOc1ccc(O)cc1" : 1.81

# compound "CCCCC(C)=O" ; its logP = 1.38

Just so you know, measured logP for "Nc1cccnc1" came out at 0.11

---

property: logP
Please respond with just the number, no unit label.

For orientation, consider the following solved cases.
CC(C)NCC(O)c1ccc([N+](=O)[O-])cc1 (configuration not stated)    1.28
CC(C)N(N=O)C(C)C    1.38
CC(O)Cn1cnc2c1c(=O)n(C)c(=O)n2C (configuration not stated)    -0.77

For "CCCCCl" the compound record lists logP as 2.64

# logP (compound: "COC(=O)C(C#N)=NNc1ccc(Cl)cc1C(F)(F)F" ) is 4.66

What the record says about "C=CCOc1ccc(CC(=O)O)cc1Cl" : logP is 2.48

---

This section presents compounds with their documented logP values.
Hey, just send me the number, nothing else.

Some entries whose results are on file:
CNC(=O)Oc1ccccc1OC(C)C    1.52
O=NN1CCCCC1    0.36
Cc1cc(C)c(C)cc1C    4

For "C[C@H](CS)C(=O)N1CCC[C@H]1C(=O)O" the compound record lists logP as 0.34

// recorded logP for "Cc1ccc2cccc(O)c2n1" : 2.33

For reference, reported logP for "NS(=O)(=O)c1ccccc1[N+](=O)[O-]" stands at 0.34

Lookup result for "Nc1cccc(Cl)c1" ; measured logP: 1.88

What the record says about "CNC(=O)Oc1cccc(C(C)=O)c1" : logP is 0.9

The compound listed as "COC(=O)C(C#N)=NNc1cccc(C(F)(F)F)c1" shows logP equal to 3.78

Sample "OCC(O)CO" ; logP observed: -1.76

So for "CC(=O)C(C#N)=NNc1ccccc1Cl" , the logged logP turned out to be 4

---

Entries and their logP values follow.
Number only, please.

Example compounds with recorded logP:
Nc1ccc(C(=O)O)cc1Br    1.4
O=C(O)c1cccnc1    0.36
Cc1ccc(S(N)(=O)=O)cc1    0.82

Reported logP of "CC(C)[C@H](N)C(=O)O" : -2.26

Record "C1CO1" , field logP: -0.3

The reported logP of the compound "Nc1ccn([C@H]2C[C@H](O)[C@@H](CO)O2)c(=O)n1" was -1.77

Kindly note the recorded logP for "OCc1ccncc1" , which is 0.06

# logP of "Nc1ccc2ccccc2c1" = 2.28

---

Class Met: logP at least 0.9. Class Not met: logP below 0.9.

CC(=O)c1cccc(OCC(=O)O)c1    Met
CCCOC(=O)c1ccc(S(N)(=O)=O)cc1    Met
NC(=O)C1(N2CCCCC2)CCN(CCCC(=O)c2ccc(F)cc2)CC1    Met
CCNC(=O)c1ccc(S(N)(=O)=O)cc1    Not met
C1CCOC1    Not met

Input line: Has "c1ccc2cc3ccccc3cc2c1" a recorded logP greater than or equal to 0.9?
Output line: Met

---

Collected logP values appear next to each entry.
Please state the value as a number alone, without comment.

Here is how some molecules turned out for logP.
CC(C)=O    -0.24
CC(=O)c1ccc(N)cc1    0.83
O=[N+]([O-])c1ccccc1O    1.79

Reported logP ( "C#CC" ) = 0.94

// logP value for "c1ccc(-c2ncc[nH]2)cc1" : 1.88

Reported logP ( "COC(=O)C(C#N)=NNc1ccccc1C(F)(F)F" ) = 3.7

---

# logP annotations

COC1C(Cl)C(Cl)C(Cl)C(Cl)C1OC (stereo unspecified)    2.82

Lab note: "CCCNCC(C)C" gave logP of 2.07

Data point: CC(N)C(=O)O (racemic) ; logP = -2.96

According to the records, this molecule "COC(=O)C(C#N)=NNc1cc(Cl)c(Cl)cc1Cl" displays logP of 5.15

Short answer for "CC(C)[N+](=O)[O-]" : logP was 0.93

---

Entries and their measured logP follow.

Recorded logP, per entry:
Cc1ccc2cccc(C)c2c1    4.44
O=C(O)COc1ccc(Cl)cc1    2.25
c1ccc2[nH]cnc2c1    1.32
O=Nc1c(O)ccc2ccccc12    2.28
Oc1cccc(F)c1    1.93

Here is the next item to consider.
The recorded logP for "N#Cc1ccccc1" is 1.56

---

Listed here are compounds together with their documented logP.
Keep the answer to the number alone.

CNC(=O)Oc1cccc(C#N)c1    0.97
CCCCOc1ccc(CC(=O)NO)cc1    2.08
O=C(O)c1ccccc1Oc1ccccc1    3.11

logP reading for "CC(=O)C(C#N)=NNc1cc(Cl)cc(Cl)c1" : 4.68

The value of logP measured for the compound "Oc1ccccc1I" turned out to be 2.65

For record "Oc1ccccn1" the listed logP is -0.58

---

property: logP

// solved cases for logP follow
O=C1NS(=O)(=O)c2ccccc21    0.91
NC(=O)CCCn1nnc2ccccc21    0.37
CCc1ccc(S(N)(=O)=O)cc1    1.31

Lookup result for "OCc1ccccc1O" ; measured logP: 0.73

Recorded result, "Cc1ccc(OCC(=O)O)cc1" , logP: 1.86

Reported logP for "CNC(=O)OC" was -0.06

---

Listing of recorded logP by entry.
Please reply with the value in numeric form only.

Reference set (4 entries):
Cc1cccc(S(N)(=O)=O)c1    0.85
O=[N+]([O-])c1cc2ccccc2[n+]([O-])c1    0.56
O=c1ccn([C@H]2C[C@H](O)[C@@H](CO)O2)c(=O)[nH]1    -1.51
FCF    0.2

// recorded logP for "COC(=O)C(C#N)=NNc1cc(Cl)c(Cl)c(Cl)c1" : 5.22

So for "CC(=O)Oc1cccc(O)c1" , the logged logP turned out to be 1.23

Quick note, logP for CCOC1(c2ccccc2)OCCN(C)C1C (stereo unspecified) landed at 2.27

Form field logP, entry "O=[N+]([O-])c1cccc2cccnc12" : 1.4

Record "CCN(CC)CC" . Reported logP: 1.45

---

property: logP
// no unit, no text: just the number

Below, 5 compounds whose answers are already recorded.
NCCc1ccccc1    1.41
NS(=O)(=O)c1ccc(Br)cc1    1.36
CCCCCC(=O)O    1.92
CCC(Cc1ccccn1)C(N)=O (centres undefined)    -0.01
COc1ccc(CC(C)N)c(OC)c1 (centres undefined)    1.75

get_value(item= "O=C(O)COc1cccc(Br)c1" , readout=logP) returns 2.22

Input "Nc1ccccc1[N+](=O)[O-]" . Output logP: 1.85
